system: A549 NSCLC; assay: NCI tumour cell line growth inhibition, 48 h
parameter-measured: TGI

INSERT INTO measurements (compound, target_system, parameter_measured, endpoint_result) VALUES
  ('COC(=O)c1cc(C)ccc1C1CN=NC12Cc1ccc(C)cc1C2=O (stereo not drawn)', 'A549 NSCLC', 'TGI', '> 100 µM'),
  ('CCCCCCCC(=O)OCC/C=C/C1OC1C1OC(=O)/C=C\C=C\c2nc(oc2C)/C=C(/C)CCC2OC2C1OC(=O)NC(C)=O (stereo not drawn)', 'A549 NSCLC', 'TGI', '2.64 µM'),
  ('Nc1nccc(-c2c(-c3ccc(F)cc3)ncn2C2CCC(O)CC2)n1 (stereo not drawn)', 'A549 NSCLC', 'TGI', '> 25 µM'),
  ('OC1(c2ccccc2)C2CCN(CC2)C1CN1CCOCC1 (stereo not drawn)', 'A549 NSCLC', 'TGI', '> 100 µM'),
  ('O=C(O)CCNC1CCCCC1', 'A549 NSCLC', 'TGI', '> 100 µM'),
  ('O=S(=O)(SC1=NCCN1)c1ccc2ccccc2c1', 'A549 NSCLC', 'TGI', '86.3 µM'),
  ('O=C(O)CCSC(=O)Nc1ccc([N+](=O)[O-])cc1', 'A549 NSCLC', 'TGI', '> 100 µM'),
  ('N#Cc1c(=O)n(-c2ccccc2)c(O)c2c(N)n[nH]c12', 'A549 NSCLC', 'TGI', '> 100 µM'),
  ('Cc1cccc(C(C)C)c1NC(=O)/C(Cc1c([N+](=O)[O-])cccc1[N+](=O)[O-])=N/NC(=O)CC#N', 'A549 NSCLC', 'TGI', '> 100 µM'),
  ('CC(C)(C)c1cc(CCC(=O)Nc2ccc(Cl)cc2)nc(NC#N)n1', 'A549 NSCLC', 'TGI', '> 100 µM'),
  ('COc1cc2ncnc(Nc3cccc(Cl)c3)c2cc1OC', 'A549 NSCLC', 'TGI', '49 µM'),
  ('O=C(O)C(CS)Nc1c2ccccc2nc2ccccc12 (stereo not drawn)', 'A549 NSCLC', 'TGI', '> 100 µM'),
  ('O=S(=O)(NC1=NCCN1C(=S)SN1CCn2c1nsc2=S)c1cccc(Cl)c1', 'A549 NSCLC', 'TGI', '91.2 µM'),
  ('Nc1cccc(S(=O)(=O)NCC(=O)O)c1', 'A549 NSCLC', 'TGI', '> 100 µM'),
  ('N#CC12CNCC1CN=N2 (stereo not drawn)', 'A549 NSCLC', 'TGI', '> 100 µM'),
  ('C[N+]1=C(/C=C/c2ccc(O)c3ncccc23)C(C)(C)c2ccccc21', 'A549 NSCLC', 'TGI', '13.4 µM'),
  ('CC[C@@]1(c2ccccc2)C2=C(CC(C)(C)CC2=O)Nc2[nH]ncc21', 'A549 NSCLC', 'TGI', '> 100 µM'),
  ('Cc1ccc(S(=O)(=O)c2ccsc2NC(=O)C(F)(F)F)cc1', 'A549 NSCLC', 'TGI', '> 100 µM'),
  ('O=C1N[C@H]2c3c(Cl)sc(Cl)c3[C@@H](O)[C@H]2O1', 'A549 NSCLC', 'TGI', '> 100 µM'),
  ('C#CCNC(=O)c1cccc2c1cc(C)n2-c1nc2c(c(NCc3ccccc3)n1)CCCC2', 'A549 NSCLC', 'TGI', '0.124 µM'),
  ('O=[N+]([O-])c1ccc(C=NC2CCCCC2)cc1', 'A549 NSCLC', 'TGI', '> 100 µM'),
  ('CCN(CCO)C(=O)C1(c2ccccc2)CCCCC1', 'A549 NSCLC', 'TGI', '> 10 µM'),
  ('CCOC1Oc2ccc(C)cc2C(=O)/C1=C\Nc1ccc(C(N)=O)cc1 (stereo not drawn)', 'A549 NSCLC', 'TGI', '> 100 µM');
